Biological target: T1, YFP-tagged human APJ receptor (human, UniProt P35414 1-380)
T1 construct: whole, on cells; also called hAPJ; APJ WT; not shown: YFP tag
T1 sequence (looked up): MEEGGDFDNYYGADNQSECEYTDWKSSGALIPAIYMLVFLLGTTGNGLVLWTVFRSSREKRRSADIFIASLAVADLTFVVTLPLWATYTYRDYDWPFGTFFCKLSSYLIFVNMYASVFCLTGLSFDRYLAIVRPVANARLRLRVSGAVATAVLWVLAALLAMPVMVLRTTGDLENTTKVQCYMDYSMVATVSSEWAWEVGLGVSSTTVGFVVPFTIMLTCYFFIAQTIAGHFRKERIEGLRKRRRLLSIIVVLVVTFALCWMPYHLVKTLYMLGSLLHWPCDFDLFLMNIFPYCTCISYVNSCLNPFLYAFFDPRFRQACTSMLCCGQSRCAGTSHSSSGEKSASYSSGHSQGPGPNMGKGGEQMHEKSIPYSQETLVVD
Assay: competitive radioligand binding, HEK293-hAPJ membranes
pKi: −log10 of the molar value. Bridge positions count the residues as written; N and C are the ends. Square brackets hold non-standard residues; d marks the D form. Ends that are not written are not given here. Oic = O=C(O)[C@@H]1C[C@@H]2CCCC[C@@H]2N1; pGlu = O=C1CC[C@@H](C(=O)O)N1; Nle = CCCC[C@H](N)C(=O)O
// Criterion not met strictly below 8 in pKi; Criterion met otherwise

Here's what some known entries look like.
input: Is the recorded value of pKi equal to or greater than 8 for this binder? [pGlu]RRE[Nle]PKHSRVPFP (lactam 4-7) [Compound 75 (ABB01-105)]
output: Criterion not met

input: Then what about the binder KRRE[Nle]PLHSRVPFP (lactam 1-4) [Compound 72 (AM03-37)] ?
output: Criterion met

More entries:
input: Exam item: decide whether the reported pKi for [pGlu]RRSKPLHERVPFP (lactam 5-9) [Compound 76 (AM03-40)] is at least 8.
output: Criterion not met

input: Moving on to KRRE[Nle]CLHCRVPFP (lactam 1-4; disulfide 6-9) [Compound 79 (AM03-68)]
output: Criterion met

input: Now consider [pGlu]RRK[Nle]PEHSRVPFP (lactam 4-7) [Compound 74 (AM03-38)] .
output: Criterion not met

input: And then [pGlu]RRSEPLHKRV[Oic]FP (lactam 5-9) [Compound 78 (AM03-67)] , what is it?
output: Criterion not met
